EXPERIMENTAL TARGET: CDK2/CycE (Homo sapiens)
Construct: GST
ASSAY OVERVIEW: CDK2/CycE high ATP kinase assay (TR-FRET, 2 mM ATP)
CONDITION: Method 2b
# note: exactly 4 µM is not below, so it is condition not met; use condition met for IC50 strictly under it

Worked set:
Does CC1CCCCOc2cc(ccc2F)-c2cc(ncc2F)Nc2cc(CS(C)(=O)=O)cc(n2)O1 (single isomer, unassigned) [Example 30] have IC50 strictly under 4 µM?
condition met

Please answer likewise for CC(C)(C)OC(=O)N=S(C)(=O)Cc1cc2cc(c1)OCCCCCOc1cc(ccc1F)-c1nc(ncc1F)N2 (racemic) [Example 5]
condition not met

Please answer likewise for CC1CCCOc2cc(ccc2F)-c2cc(ncc2F)Nc2cc(CS(C)(=O)=O)cc(n2)O1 (racemic) [Example 28]
condition met

Continuing:
Does CS(=N)(=O)Cc1cc2cc(c1)OCCCCCOc1cc(ccc1F)-c1nc(ncc1F)N2 (racemic) [Example 6] have IC50 strictly under 4 µM?
condition not met

Please answer likewise for CC1CCCCCOc2cc(ccc2F)-c2cc(ncc2F)Nc2cc(CS(C)(=O)=O)cc(n2)O1 (single isomer, unassigned) [Example 31]
condition not met

Please answer likewise for CSCc1cc2nc(c1)OC(C)CCCOc1cc(ccc1F)-c1cc(ncc1F)N2 (single isomer, unassigned) [Example 13]
condition met

Please answer likewise for CC1CCCCCOc2cc(ccc2F)-c2cc(ncc2F)Nc2cc(CS(C)(=O)=O)cc(n2)O1 (single isomer, unassigned) [Example 32]
condition not met

* * *

Hi there, I'd appreciate the recorded IC50 for every entry that follows.
EXPERIMENTAL TARGET: CDK2/CycE (Homo sapiens)
Construct: GST
ASSAY OVERVIEW: CDK2/CycE high ATP kinase assay (TR-FRET, 2 mM ATP)
CONDITION: Method 2b
Numbers only, in µM.

Previously resolved entries follow.
Fill blank: measured IC50 of the molecule CS(=N)(=O)Cc1cc2cc(c1)OCCCCOc1c(F)ccc(c1F)-c1nc(ncc1F)N2 (racemic) is ____.
6.52

Please answer likewise for CC1CCCCCOc2cc(ccc2F)-c2cc(ncc2F)Nc2cc(CS(C)(=N)=O)cc(n2)O1 (single isomer, unassigned) [Example 26]
13

// next item, IC50 requested
Fill blank: measured IC50 of the molecule CC1CCCOc2cc(ccc2F)-c2cc(ncc2F)Nc2cc(CS(C)(=N)=O)cc(n2)O1 (single isomer, unassigned) [Example 15] is ____.
1.62

* * *

EXPERIMENTAL TARGET: CDK2/CycE (Homo sapiens, UniProt P24941)
Construct: GST
ASSAY OVERVIEW: CDK2/CycE high ATP kinase assay (TR-FRET, 2 mM ATP)
CONDITION: Method 2b
Hi there, I'd appreciate the recorded pIC50 for every entry that follows.
Numbers only, as −log10 of the molar value.

List pIC50 for every entry below, keeping the order given.
1. CC1CCCCCOc2cc(ccc2F)-c2cc(ncc2F)Nc2cc(CS(C)(=N)=O)cc(n2)O1 (single isomer, unassigned) [Example 27]
2. CC1CCCOc2cc(ccc2F)-c2cc(ncc2F)Nc2cc(CS(C)(=N)=O)cc(n2)O1 (single isomer, unassigned) [Example 14]
3. CC1CCCOc2cc(ccc2F)-c2cc(ncc2F)Nc2cc(CS(C)(=N)=O)cc(n2)O1 (single isomer, unassigned) [Example 17]

5.57
5.82
6.88
